Data provenance is patent US7112574B2.

# TESTED ON: adenosine A2A receptor (Rattus norvegicus)
# Sequence (P30543 whole entry): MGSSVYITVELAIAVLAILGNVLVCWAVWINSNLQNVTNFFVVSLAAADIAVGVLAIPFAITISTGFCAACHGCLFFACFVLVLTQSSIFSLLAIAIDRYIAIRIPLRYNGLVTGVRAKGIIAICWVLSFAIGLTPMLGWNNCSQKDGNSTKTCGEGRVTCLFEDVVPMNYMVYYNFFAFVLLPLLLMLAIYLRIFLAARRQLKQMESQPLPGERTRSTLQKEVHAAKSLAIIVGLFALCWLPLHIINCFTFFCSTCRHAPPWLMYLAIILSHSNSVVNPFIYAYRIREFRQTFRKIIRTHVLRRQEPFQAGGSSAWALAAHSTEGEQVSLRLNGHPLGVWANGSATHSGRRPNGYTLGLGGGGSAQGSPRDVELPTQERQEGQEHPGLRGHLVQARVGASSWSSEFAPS
READOUT LABEL: pKi
The quantity pKi is defined as the negative base-10 logarithm of the molar concentration.

Example cases with answers are listed next.
compound="CCCCC#Cc1nc(N)c2nc(NCCC)n([C@@H]3O[C@H](CO)[C@@H](O)[C@H]3O)c2n1 [Compound 14, 2-(1-Hexynyl)-8-propylaminoadenosine]" readout_label=pKi measurement=7.09
compound="CCCC/C=C/c1nc(N)c2nc(NCCC)n([C@@H]3O[C@H](CO)[C@@H](O)[C@H]3O)c2n1 [Compound 19, 2-((E)-1-hexenyl)-8-propylaminoadenosine]" readout_label=pKi measurement=6.17

Reported pKi for CCCCC#Cc1nc(N)c2nc(NC)n([C@@H]3O[C@H](CO)[C@@H](O)[C@H]3O)c2n1 [Compound 12, 2-(1-Hexynyl)-8-methylaminoadenosine] : what is it?
6.94
